Assay: Mean residence time in mouse at 1.4 mg/kg, iv
Type: ADME, organism-based
Parameters: dose 1.4 mg/kg, route intravenous
Conditions: in vivo
parameter.measured: MRT (h)
Give the value, in units of h, as a plain number.

Query block: Retrieve MRT measured for Cn1c(=O)c(F)c(Nc2ccc(I)cc2F)c2c(=O)n(C[C@@H](O)CO)cnc21 [TAK-733] and print it.
Result block: 1.9

###

Assay: Clearance in monkey at 0.5 mg/kg, iv and 2 mg/kg, po
Format: ADME, organism-based, Macaca mulatta
Conditions: rhesus monkey, in vivo
parameter.measured: clearance (mL/min/kg)
Answer format: numeric, mL/min/kg implied, no suffix.

Query block: Fill in reported clearance for this entry: Cn1c(=O)c(F)c(Nc2ccc(I)cc2F)c2c(=O)n(C[C@@H](O)CO)cnc21
Result block: 11.1

###

Assay: Volume of distribution at steady state in mouse at 1.4 mg/kg, iv and […], po
Type: ADME, organism-based
Conditions: in vivo, read-out: Vdss
parameter.measured: Vd (L/kg)
Please respond with the number in L/kg and leave the unit unwritten.

Query block: Give the value of Vd reported for the following: Cn1c(=O)c(F)c(Nc2ccc(I)cc2F)c2c(=O)n(C[C@@H](O)CO)cnc21 [TAK-733]
Result block: 1.96

###

Test: Half life in human liver microsomes
Format: ADME, Microsome
Assign half-life to each entry below.
Reply numerically in h, unit not repeated.

Query block: Find the measured half-life of Cn1c(=O)c(F)c(Nc2ccc(I)cc2F)c2c(=O)n(OC[C@H](O)CO)cnc21 and report it.
Result block: 0.583

Query block: Let me know recorded half-life for Cn1c(=O)c(F)c(Nc2ccc(Br)cc2F)c2c(=O)n(C[C@@H](O)CO)cnc21 , thanks.
Result block: 3.13

Query block: Determine from records and report half-life for Cn1c(=O)c(F)c(Nc2ccc(I)cc2F)c2c(=O)n(C[C@@H](O)CO)cnc21
Result block: 2.38

Query block: Complete the entry with half-life for Cn1c(=O)c(F)c(Nc2ccc(I)cc2F)c2c(=O)n(CCO)cnc21
Result block: 0.85

###

Test: Mean residence time in monkey at 2 mg/kg, po
Type: ADME, organism-based, Macaca mulatta
Set-up: dose 2 mg/kg, route oral
Details: rhesus monkey, in vivo
parameter.measured: MRT

Query block: Check the records and state MRT for Cn1c(=O)c(F)c(Nc2ccc(I)cc2F)c2c(=O)n(C[C@@H](O)CO)cnc21
Result block: 23.8 h

###

Experiment: Mean residence time in dog at 2.3 mg/kg, po
Assay type: ADME, organism-based, Canis lupus familiaris
Parameters: dose 2.3 mg/kg, route oral
Details: in vivo
parameter.measured: MRT (h)
The answer is to be given in h; state only the numeric part.

Query block: Return MRT for the following molecule: Cn1c(=O)c(F)c(Nc2ccc(I)cc2F)c2c(=O)n(C[C@@H](O)CO)cnc21
Result block: 12.9

###

Experiment: Mean residence time in mouse at […], po
Type: ADME, organism-based
Set-up: dose 7.8 mg/kg, route oral
Details: in vivo
parameter.measured: MRT
Form field: result (number plus unit)

Query block: Identify the reported MRT for the following entry. Cn1c(=O)c(F)c(Nc2ccc(I)cc2F)c2c(=O)n(C[C@@H](O)CO)cnc21
Result block: 4.6 h

###

Assign pEC50 to each entry below.
System: A-375
Assay: Cytotoxicity against human A375 cells after 72 hrs by MTS assay
Details: A-375, 72 h
Interpret pEC50 as the negative base-10 log of the concentration measured in mol/L.

Query block: Please report the measured pEC50 for Cn1c(=O)c(F)c(Nc2ccc(I)cc2F)c2c(=O)n(OC[C@H](O)CO)cnc21 tested on A-375.
Result block: 8.52

Query block: Report pEC50 from A-375 testing of Cn1c(=O)c(F)c(Nc2ccc(I)cc2F)c2c(=O)n(CCO)cnc21
Result block: 8.20

Query block: Give pEC50 only, for Cn1c(=O)c(F)c(Nc2ccc(Br)cc2F)c2c(=O)n(C[C@@H](O)CO)cnc21 , using A-375 data.
Result block: 7.30

Query block: Please respond with reported pEC50 (system A-375) for Cn1cnc2c(c(Nc3ccc(I)cc3F)cc(=O)n2C)c1=O .
Result block: 7.07

Query block: Jot down pEC50 (A-375) of Cn1c(=O)c(F)c(Nc2ccc(I)cc2F)c2c(=O)n(C[C@H](O)CO)cnc21 .
Result block: 8.52

Query block: State the measured pEC50 (A-375) of Cn1c(=O)cc(Nc2ccc(I)cc2F)c2c(=O)n(CCCO)cnc21
Result block: 7.64

Query block: Name the recorded pEC50 of Cn1c(=O)cc(Nc2ccc(I)cc2F)c2c(=O)n(C[C@H](O)CO)cnc21 , assay system A-375.
Result block: 7.40

Query block: Quote A-375 pEC50 for entry Cn1c(=O)cc(Nc2ccc(I)cc2F)c2c(=O)n(CCO)cnc21 .
Result block: 7.22

Query block: Please indicate recorded pEC50 of C#Cc1ccc(Nc2c(F)c(=O)n(C)c3ncn(C[C@@H](O)CO)c(=O)c23)c(F)c1 measured with A-375.
Result block: 7.96

Query block: Retrieve pEC50 on A-375; query Cn1c(=O)c(F)c(Nc2ccc(I)cc2F)c2c(=O)n(C(CO)CO)cnc21
Result block: 8.10

Query block: # return pEC50 of Cn1c(=O)c(Cl)c(Nc2ccc(I)cc2F)c2c(=O)n(C[C@@H](O)CO)cnc21 (system: A-375)
Result block: 7.60

Query block: Look up A-375 data: pEC50 of Cn1c(=O)cc(Nc2ccc(I)cc2F)c2c(=O)n(C[C@@H](O)CCO)cnc21 , then report it.
Result block: 6.32

Query block: State pEC50 on A-375. Entry: Cc1c(Nc2ccc(I)cc2F)c2c(=O)n(CCO)cnc2n(C)c1=O
Result block: 7.74

Query block: Provide pEC50, tested on A-375, for Cc1c(Nc2ccc(I)cc2F)c2c(=O)n(C[C@@H](O)CO)cnc2n(C)c1=O .
Result block: 8.13

Query block: Report pEC50 on A-375 for this entry: Cn1c(=O)c(F)c(Nc2ccc(I)cc2F)c2c(=O)n(C[C@@H](O)CO)cnc21
Result block: 8.51

Query block: With A-375 as the test system, provide measured pEC50 for this molecule: Cc1c(Nc2ccc(I)cc2F)c2c(=O)n(C[C@H](O)CO)cnc2n(C)c1=O
Result block: 8.10

Query block: Answer briefly: pEC50 recorded on A-375 for Cn1c(=O)cc(Nc2ccc(I)cc2F)c2c(=O)n(C[C@@H](O)CO)cnc21
Result block: 7.59

###

Test: Oral bioavailability in rat at 4.2 mg/kg
Type: ADME, organism-based
Conditions: in vivo
parameter.measured: bioavailability
Your reply should be a number followed by the unit it is expressed in.

Query block: Quickly give me recorded bioavailability for Cn1c(=O)c(F)c(Nc2ccc(I)cc2F)c2c(=O)n(C[C@@H](O)CO)cnc21 [TAK-733]
Result block: 71%

###

Assay: Clearance in rat at 1 mg/kg, iv and 4.2 mg/kg, po
Assay type: ADME, organism-based
Details: in vivo
parameter.measured: clearance (mL/min/kg)
Numeric only. Scale: mL/min/kg

Query block: Give the reported value of clearance for this record: Cn1c(=O)c(F)c(Nc2ccc(I)cc2F)c2c(=O)n(C[C@@H](O)CO)cnc21
Result block: 13.7

###

Would you kindly list pIC50 for each of these molecules?
// pIC50: -log10(molar conc.)

Query block: Param request: pIC50 | system Dual specificity mitogen-activated protein kinase kinase 1 (Homo sapiens, UniProt Q02750) | item Cn1c(=O)c(F)c(Nc2ccc(I)cc2F)c2c(=O)n(OC[C@H](O)CO)cnc21
Result block: 8.51

Query block: Give measured pIC50 for Cn1c(=O)c(F)c(Nc2ccc(I)cc2F)c2c(=O)n(C[C@H](O)CO)cnc21 (Dual specificity mitogen-activated protein kinase kinase 1 (Homo sapiens, UniProt Q02750)).
Result block: 8.49

Query block: Give pIC50 only, for Cn1c(=O)c(F)c(Nc2ccc(I)cc2F)c2c(=O)n(C(CO)CO)cnc21 , using Dual specificity mitogen-activated protein kinase kinase 1 (Homo sapiens, UniProt Q02750) data.
Result block: 8.48

Query block: Find the measured pIC50 of C#Cc1ccc(Nc2c(F)c(=O)n(C)c3ncn(C[C@@H](O)CO)c(=O)c23)c(F)c1 with Dual specificity mitogen-activated protein kinase kinase 1 (Homo sapiens, UniProt Q02750) as test system.
Sequence (Q02750 whole entry): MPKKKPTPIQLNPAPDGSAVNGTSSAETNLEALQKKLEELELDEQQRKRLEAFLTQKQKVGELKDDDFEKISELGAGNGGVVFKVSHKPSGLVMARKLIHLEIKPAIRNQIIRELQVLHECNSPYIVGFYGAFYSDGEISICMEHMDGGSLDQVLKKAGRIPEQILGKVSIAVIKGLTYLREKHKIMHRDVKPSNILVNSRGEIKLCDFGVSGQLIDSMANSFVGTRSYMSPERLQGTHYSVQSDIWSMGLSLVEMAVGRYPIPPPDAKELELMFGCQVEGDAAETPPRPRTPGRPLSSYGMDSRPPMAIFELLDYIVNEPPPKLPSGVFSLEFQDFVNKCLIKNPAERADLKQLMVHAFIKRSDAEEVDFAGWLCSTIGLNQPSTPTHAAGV
Result block: 8.32

Query block: Provide measured pIC50 on Dual specificity mitogen-activated protein kinase kinase 1 (Homo sapiens, UniProt Q02750) for Cn1c(=O)cc(Nc2ccc(I)cc2F)c2c(=O)n(CCCO)cnc21 please.
Result block: 8.31

Query block: Please look at Cn1c(=O)c(Cl)c(Nc2ccc(I)cc2F)c2c(=O)n(C[C@@H](O)CO)cnc21 and tell me its recorded pIC50 on Dual specificity mitogen-activated protein kinase kinase 1 (Homo sapiens, UniProt Q02750).
Result block: 8.23

Query block: State pIC50 on Dual specificity mitogen-activated protein kinase kinase 1 (Homo sapiens, UniProt Q02750). Entry: Cn1c(=O)c(F)c(Nc2ccc(I)cc2F)c2c(=O)n(C[C@@H](O)CO)cnc21
Result block: 8.49

Query block: Fill: pIC50 (Dual specificity mitogen-activated protein kinase kinase 1 (Homo sapiens, UniProt Q02750)) for this molecule CN(C)CCn1cnc2c(c(Nc3ccc(I)cc3F)cc(=O)n2C)c1=O
Result block: 6.13

Query block: // output pIC50; input Cc1c(Nc2ccc(I)cc2F)c2c(=O)n(CCO)cnc2n(C)c1=O ; system Dual specificity mitogen-activated protein kinase kinase 1 (Homo sapiens, UniProt Q02750)
Result block: 8.40
